Target: Chromobox protein homolog 8 (Homo sapiens)
Sequence (Q9HC52 whole entry): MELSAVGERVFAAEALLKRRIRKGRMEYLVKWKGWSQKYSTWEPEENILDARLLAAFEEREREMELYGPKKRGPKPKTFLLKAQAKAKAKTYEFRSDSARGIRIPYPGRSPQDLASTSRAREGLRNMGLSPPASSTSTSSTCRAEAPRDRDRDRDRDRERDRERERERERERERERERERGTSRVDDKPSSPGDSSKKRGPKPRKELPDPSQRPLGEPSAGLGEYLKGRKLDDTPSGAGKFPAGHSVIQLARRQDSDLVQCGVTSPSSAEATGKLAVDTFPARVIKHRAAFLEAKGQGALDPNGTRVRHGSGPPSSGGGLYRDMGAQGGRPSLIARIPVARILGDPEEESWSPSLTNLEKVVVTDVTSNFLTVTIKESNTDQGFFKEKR
pIC50: −log10 of the molar value. Non-standard residues stand in square brackets, D forms with d. Residues, ends and D or L forms follow the SMILES beside them. *: point of attachment. Lys(Me3) = C[N+](C)(C)CCCC[C@H](N)C(=O)O; Benzoyl(4-Br) = O=C(c1ccc(Br)cc1)*; Gly(cPent) = N[C@H](C(=O)O)C1CCCC1; Abu = CC[C@H](N)C(=O)O
measured.parameter: pIC50

Worked examples, 2 compounds total:
C[C@H](NC(=O)[C@H](Cc1ccccc1)NC(=O)c1ccc(Br)cc1)C(=O)N[C@@H](Cc1ccc(O)cc1)C(=O)N[C@@H](CCCC[N+](C)(C)C)C(=O)N[C@@H](CO)C(N)=O ({Benzoyl(4-Br)}-FAY[Lys(Me3)]S-NH2) : 4.38
CC(C)C[C@H](NC(=O)[C@H](CO)NC(=O)[C@H](CCCC[N+](C)(C)C)NC(=O)[C@H](Cc1ccc(O)cc1)NC(=O)[C@H](C)NC(=O)[C@H](Cc1ccccc1)NC(=O)c1ccc(Br)cc1)C(N)=O ({Benzoyl(4-Br)}-FAY[Lys(Me3)]SL-NH2) : 4.72

1. CC[C@H](NC(=O)[C@H](Cc1ccccc1)NC(=O)c1ccc(Br)cc1)C(=O)N[C@H](C(=O)N[C@@H](CCCC[N+](C)(C)C)C(=O)N[C@@H](CO)C(=O)N[C@@H](CCC(=O)O)C(N)=O)C1CCCC1 ({Benzoyl(4-Br)}-F[Abu][Gly(cPent)][Lys(Me3)]SE-NH2)
2. C[C@H](NC(=O)[C@H](Cc1ccccc1)NC(=O)c1ccc(Br)cc1)C(=O)N[C@@H](Cc1ccc(O)cc1)C(=O)N[C@@H](CCCC[N+](C)(C)C)C(=O)N[C@@H](CO)C(=O)N[C@@H](CCC(=O)O)C(N)=O ({Benzoyl(4-Br)}-FAY[Lys(Me3)]SE-NH2)
// task: argmin of pIC50 over [ 1 , 2 ] Selection: enter the item's label. 2
(2: 4.92, 1: 5.42)
